For each record, write down the corresponding EC50.
tested on: CEM cells HIV-1 protection, formazan growth assay; assay: NCI AIDS Antiviral Assay

Q. Form field - read-out: EC50; system: CEM cells HIV-1 protection, formazan growth assay; submitted item: C1C2CC3CC1CC(c1nn4c(C56CC7CC(CC(C7)C5)C6)nnc4s1)(C2)C3
A. > 200 µM

Q. Another compound to check: Cn1c(=O)c2nc3sc4c(n3c2n(C)c1=O)C(=O)c1ccccc1C4=O
A. > 14.1 µM

Q. Another compound to check: Oc1ccc2ccccc2c1C=Nc1ccc(SSc2ccc(N=Cc3c(O)ccc4ccccc34)cc2)cc1
A. > 200 µM

Q. Another compound to check: CCSc1nc2sc(C)c(C)c2c(=O)n1-c1ccc(C(=O)O)cc1
A. > 200 µM

Q. Another compound to check: CCOC(=O)C1C(c2ccco2)C2(C#N)C(=N)OC1(C)C2(C#N)C#N (stereo unspecified)
A. > 200 µM

Q. Another compound to check: O=c1/c(=C/c2ccc3c(c2)OCO3)sc2nnc(-c3ccco3)n12
A. > 55 µM

Q. Another compound to check: COC=C=CC(C)(C)OC
A. > 550 µM

Q. Another compound to check: CC(C)C12C=CC(C)(CC1)n1c(=O)c3cc4ccccc4cc3c(=O)n12 (stereo unspecified)
A. > 4.17 µM

Q. Another compound to check: COc1cc2c(cc1OC)C1(c3ccccc3)ON=C(c3ccccc3)N1CS2 (stereo unspecified)
A. > 9.33 µM

Q. Another compound to check: [Pt].c1ccc(P(CCP(CCP(c2ccccc2)c2ccccc2)CCP(c2ccccc2)c2ccccc2)c2ccccc2)cc1
A. > 5.62 µM

Q. Another compound to check: C1=C[C@]2(CCC13OCCO3)COc1ccccc12
A. > 200 µM

Q. Another compound to check: Cc1cnc(NCCCN(C)C)c2c1[nH]c1ccc3ccccc3c12
A. > 2 µM

Q. Another compound to check: O=C(N=Nc1ccccc1Br)NNc1ccccc1Br
A. > 200 µM

Q. Another compound to check: OCC1C(O)C(O)[C@@H]2SCCN12 (stereo partly specified)
A. > 200 µM

Q. Another compound to check: O=C1/C(=C/c2ccc(O)cc2)CCc2ccccc21
A. > 200 µM

Q. Another compound to check: COc1ccc(-c2ccc(CC(=O)O)cc2)cc1OC
A. > 36.3 µM

Q. Another compound to check: Cc1cccc(CNc2ncnc3[nH]ncc23)c1
A. > 200 µM

Q. Another compound to check: CC(OC(=O)C(CC(=O)OC(C)(C)C)NC(=O)OC(C)(C)C)C(=O)OCc1ccccc1 (stereo unspecified)
A. > 200 µM

Q. Another compound to check: C=CN1C(=O)[C@H](Oc2ccccc2)[C@@H]1c1ccccc1
A. > 135 µM

Q. Another compound to check: CCCCCOCCCCCCCC(=O)O
A. > 200 µM

Q. Another compound to check: O=c1[nH]c(/C=C(\O)c2ccncc2)nc2ccccc12
A. > 2.82 µM
